The values you see were collected from paper PMC11897886.

- ASSAYED SYSTEM: T1, CBP-Upf1-CH-HD (S. cerevisiae, UniProt P30771 54-851)
- T1 sequence: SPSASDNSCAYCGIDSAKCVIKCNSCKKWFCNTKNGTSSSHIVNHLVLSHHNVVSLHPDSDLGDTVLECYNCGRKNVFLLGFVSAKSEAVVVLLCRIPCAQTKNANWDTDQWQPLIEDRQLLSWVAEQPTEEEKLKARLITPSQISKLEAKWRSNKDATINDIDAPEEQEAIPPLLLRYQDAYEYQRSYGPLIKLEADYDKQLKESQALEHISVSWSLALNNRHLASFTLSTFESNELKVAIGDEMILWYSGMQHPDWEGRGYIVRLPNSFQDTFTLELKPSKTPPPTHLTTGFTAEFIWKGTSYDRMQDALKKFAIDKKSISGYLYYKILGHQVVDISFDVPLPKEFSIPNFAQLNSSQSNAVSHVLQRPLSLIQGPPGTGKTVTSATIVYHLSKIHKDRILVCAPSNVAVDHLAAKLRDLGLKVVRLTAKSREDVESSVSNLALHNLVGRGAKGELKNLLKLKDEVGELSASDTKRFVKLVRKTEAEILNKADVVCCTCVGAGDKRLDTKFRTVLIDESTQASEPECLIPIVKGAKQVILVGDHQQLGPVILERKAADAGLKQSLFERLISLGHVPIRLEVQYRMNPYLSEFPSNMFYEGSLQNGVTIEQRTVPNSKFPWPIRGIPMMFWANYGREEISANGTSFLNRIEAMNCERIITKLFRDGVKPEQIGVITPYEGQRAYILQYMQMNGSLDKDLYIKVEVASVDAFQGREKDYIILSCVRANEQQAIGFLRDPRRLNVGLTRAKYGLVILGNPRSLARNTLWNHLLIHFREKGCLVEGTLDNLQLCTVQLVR
- TEST DETAILS: pull-down
READOUT KIND: binding result

[[record]]
binder = "VGLSSTTNTVKKVPKVKILKRGETFASLANDKKA (domain or fragment) [GST-Dcp2-UBM2 (aa 687-720)]"
result = "binds"

